# Target Of Assay: E. coli ExoI (Escherichia coli, UniProt P04995)
# Sequence (P04995 whole entry): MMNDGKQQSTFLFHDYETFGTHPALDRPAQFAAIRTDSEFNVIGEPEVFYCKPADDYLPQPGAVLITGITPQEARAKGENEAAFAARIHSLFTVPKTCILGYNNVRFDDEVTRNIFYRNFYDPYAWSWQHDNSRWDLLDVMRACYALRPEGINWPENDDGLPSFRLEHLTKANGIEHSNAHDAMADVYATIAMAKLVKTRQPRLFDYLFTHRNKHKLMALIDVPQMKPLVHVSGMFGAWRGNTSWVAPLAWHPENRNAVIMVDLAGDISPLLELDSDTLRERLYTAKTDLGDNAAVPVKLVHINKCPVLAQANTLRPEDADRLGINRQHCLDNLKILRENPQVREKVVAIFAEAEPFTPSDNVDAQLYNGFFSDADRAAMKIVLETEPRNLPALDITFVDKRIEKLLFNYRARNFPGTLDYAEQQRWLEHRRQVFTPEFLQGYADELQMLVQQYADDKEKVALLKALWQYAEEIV
# Assay Protocol: Peptide competition-binding assay
No end group written: not given here.
Observable: pIC50
Give bare numbers, as −log10 of the molar value.

Completed entries (count: 4):
>  <Substance>
WMDFADDIPF [WMDFADDIPF]

>  <Assay Result>
5.07

$$$$
>  <Substance>
WMDFDDAIPF [WMDFDDAIPF]

>  <Assay Result>
5.03

$$$$
>  <Substance>
WMDFDDDIPY [WMDFDDDIPY]

>  <Assay Result>
3.42

$$$$
>  <Substance>
WMDFDDDISF [WMDFDDDISF]

>  <Assay Result>
4.28

$$$$

Need pIC50 for each of these substances.
1. WMAFAAAIPF [WMAFAAAIPF]
2. WMDFDADIPF [WMDFDADIPF]
3. WMAFDDDIPF [WMAFDDDIPF]

3.77
5.17
4.94
